Items are presented alongside their recorded Hepatotoxicity (acute).
- ASSAY INFO: Highest frequency of acute liver toxicity observed during clinical trials, expressed as a percentage. [column '% AIGUE' in source]
- MEASUREMENT CONDITIONS: human
ATTRIBUTE MEASURED: Hepatotoxicity (acute) (%)

{"columns": ["SUBSTANCE", "MEASUREMENT"],
 "data": [
  ["NEDAPLATIN", 0],
  ["DALTEPARIN SODIUM", 0],
  ["BCG VACCINE", 0.9],
  ["NARTOGRASTIM", 0],
  ["PEGASPARGASE", 7.7],
  ["POLOXAMER", 0],
  ["TINZAPARIN SODIUM", 0],
  ["PENTOSAN POLYSULFATE SODIUM", 0],
  ["ADALIMUMAB", 0],
  ["NADROPARIN CALCIUM", 0],
  ["PEGLOTICASE", 0],
  ["INTERFERON GAMMA-1A", 0],
  ["CARBOPLATIN", 6.1],
  ["ALDESLEUKIN", 35.7],
  ["PEGVISOMANT", 1.3],
  ["CARBETIMER", 0],
  ["INTERFERON ALFA-2A", 35.7],
  ["UROKINASE", 0],
  ["PARAFFIN", 0],
  ["STIBOGLUCONATE", 2],
  ["SPIRAMYCIN", 0],
  ["COLESTIPOL", 0],
  ["COLISTIN", 0],
  ["ETANERCEPT", 0],
  ["INSULIN HUMAN", 0],
  ["ASPARAGINASE", 2.9],
  ["INTERFERON ALFA-N1", 0],
  ["LOBAPLATIN", 0],
  ["MUROMONAB-CD3", 0],
  ["INTERFERON ALFA-2B", 0],
  ["INTERLEUKIN 6", 0],
  ["FILGRASTIM", 0],
  ["IVERMECTIN", 0],
  ["ANISTREPLASE", 0],
  ["ANTIMONY (III) ION", 0],
  ["GALLIUM", 21.4],
  ["INFLIXIMAB", 0],
  ["ALTEPLASE", 0],
  ["SODIUM NITROPRUSSIDE", 0],
  ["NYSTATIN", 0]
]}

Taken from ChEMBL document CHEMBL3137667.
